- assay-summary: Firefly Luciferase Counterscreen for Inhibitors of ATXN expression; also: potency is read from the fitted curve at half-maximal effect
- condition-description: luminescence; series mostly up to 57.5 µM
- Protocol: University of Utah School of Medicine, Salt Lake City, Utah Spinocerebellar ataxia type 2 (SCA2) is a multisystem neurodegenerative disease caused by a dominantly acting mutation leading to expansion of a polyQ domain in the ataxin-2 protein (ATXN2). […] 5; Detection; Luminescence; Viewlux plate reader (PerkinElmer). […] 5. End-point luminescence is then measured on the Viewlux (PerkinElmer) imager equipped with a clear emission filter using a 2 sec exposure. […]
The campaign covered roughly 1,400 compounds. About 30 (2%) were called active. About 15% were inconclusive and are not listed. This is one part of a sample in which actives are shown more often than they occur.
measured-endpoint: Potency

Below, each entry is followed by its recorded Potency result.
CCc1ccc(NC(=O)COc2ccc(/C=C(/C#N)c3nc4ccccc4[nH]3)cc2OC)cc1 :: inactive
O=C(NNCc1ccccc1)c1ccccc1 :: 10 µM (active)
O=C(CCCOc1ccc(Cl)cc1Cl)N/N=C/c1ccccc1O :: inactive
O=C(Nc1nonc1-c1ccc(Cl)cc1)c1ccccc1 :: inactive

The compound listed as OC(CNCCc1ccccc1)COc1ccc(OCC(O)CNCCc2ccccc2)cc1 (configuration not stated) shows Potency equal to inactive

Measured Potency of `COc1cc(OC)cc(-c2cc3nc(C)c(CCC(=O)O)c(C)n3n2)c1` : 12.6 µM (active)

Recorded result, `O=C(COc1nsnc1N1CCOCC1)N/N=C/c1ccccc1O` , Potency: inactive

====

- assay-summary: Firefly Luciferase Counterscreen for Inhibitors of ATXN expression
- condition-description: luminescence; series mostly up to 57.5 µM
In all, about 1,400 compounds went through this assay and about 30 (2%) were called active. Another 15% or so got no clear call; they are omitted. Calls come from the whole dose curve; as a rule, active = well fitted inhibition curve with a large enough effect; inconclusive = small, poorly fitted or top-dose-only effect; inactive = flat fitted curve, though single readings scatter. The sample as a whole holds a higher share of actives than the screen did.
Please reply with one of these outcomes: true (1) for active, false (0) for inactive

Req: Which outcome was entered for the molecule `Cn1c(CO)cnc1SCC(=O)c1ccc(Br)cc1` in this test?
Resp: false (0)

Req: Answer briefly: the call reported for `CCOC(=O)c1c(C)nn(-c2ccc(NC(=O)c3cccs3)cc2)c1C` in this assay.
Resp: false (0)

Req: What call does the record list for O=C(NCc1ccccc1Cl)C1CCCN(C(=O)Nc2ccc(F)cc2)C1 (configuration not stated) ?
Resp: false (0)

====

- assay-summary: Firefly Luciferase Counterscreen for Inhibitors of ATXN expression
- condition-description: luminescence; series mostly up to 57.5 µM
The campaign covered roughly 1,400 compounds. About 30 (2%) were called active. Inconclusive results (about 15%) are left out. Calls come from the whole dose curve; as a rule, active = well fitted inhibition curve with a large enough effect; inconclusive = small, poorly fitted or top-dose-only effect; inactive = flat fitted curve, though single readings scatter. Shown is part of a subset that was picked to be rich in actives.
Reply using exactly one outcome from true (1) = active, false (0) = inactive

CC1(C)Cc2ccccc2C(NNC(=O)c2ccccn2)=N1 :: false (0)
O=C(CSc1n[nH]c(-c2ccccn2)n1)Nc1ccccc1 :: false (0)
Oc1c(C(Nc2cccc(C(F)(F)F)c2)c2ccncc2)ccc2cccnc12 (stereo unspecified) :: false (0)
Clc1ccc2c(NCc3ccccc3)ccnc2c1 :: false (0)

Req: # lookup: test call for `Cc1nc2ccccc2n1/N=C/c1ccc([N+](=O)[O-])o1`
Resp: false (0)

Req: What call does the record list for `O=C(CSc1nnc(-c2ccc(Br)cc2)o1)Nc1cccc(C(=O)O)c1` ?
Resp: true (1)

====

- assay-summary: Firefly Luciferase Counterscreen for Inhibitors of ATXN expression
- condition-description: luminescence; series mostly up to 57.5 µM
Screen size: about 1,400 compounds; about 30 (2%) were called active. Another 15% or so got no clear call; they are omitted. Calls come from the whole dose curve; as a rule, active = well fitted inhibition curve with a large enough effect; inconclusive = small, poorly fitted or top-dose-only effect; inactive = flat fitted curve, though single readings scatter. For the sample, actives were picked, then their nearest neighbours and some compounds at random.
The categories you may choose from are active, inactive

O=C(Nc1nc(-c2ccccn2)cs1)c1ccc(F)c(S(=O)(=O)N2CCOCC2)c1 :: inactive

Req: Please share the test call associated with `Cn1c2ccccc2c(=O)c2c(=O)n(C3CCCCC3)c(-c3cccs3)nc21` .
Resp: inactive

Req: Status in this test for `CCc1sc(C(=O)Nc2nc(-c3ccccn3)cs2)cc1C` ?
Resp: active

Req: How was `Cc1cc(N/N=C/c2ccccc2[N+](=O)[O-])nc(-n2nc(C)cc2C)n1` classified in this test?
Resp: inactive

Req: Per the assay record, what outcome was assigned to COC1CC(C)C(OC)c2cc(O)cc(c2O)NC(=O)C(C)=CC=CC(C)C(OC(N)=O)C(C)=CC(C)C1OC (centres undefined) ?
Resp: inactive

Req: Which outcome was entered for the molecule `Cc1ccc(S(=O)(=O)Nc2ccc(O)c3cccnc23)cc1` in this test?
Resp: inactive

====

- assay-summary: Firefly Luciferase Counterscreen for Inhibitors of ATXN expression
- condition-description: luminescence; series mostly up to 57.5 µM
The whole screen tested about 1,400 compounds, of which about 30 (2%) were called active. Roughly 15% stayed inconclusive and do not appear here. Calls come from the whole dose curve; as a rule, active = well fitted inhibition curve with a large enough effect; inconclusive = small, poorly fitted or top-dose-only effect; inactive = flat fitted curve, though single readings scatter. What follows is part of a selection rich in actives, with near analogues and random picks from the rest.
// classify into T for active, F for inactive

Past entries and their recorded results:
CN(C)CCCN(C(=O)c1ccc(S(=O)(=O)N(C)Cc2ccccc2)cc1)c1nc2cc3c(cc2s1)OCO3 :: F
COc1ccccc1N(CC(=O)N/N=C/c1c(O)ccc2ccccc12)S(C)(=O)=O :: F
C/C(=N\NC(=O)Cc1ccc(Cl)cc1)c1ccccc1O :: F
O=C(NC1=CC(=O)c2ccccc2C1=O)c1ccccc1 :: T
Cc1cc(O)c(C)c(O)c1/C=N/NC(=O)c1cccnc1 :: F

Req: Record request — test call for `CCOC(=O)CSc1cccc2cccnc12`
Resp: F

Req: In this assay, the call recorded for `Cc1ccc(S(=O)(=O)N(C)C)cc1NC(=O)c1cncc(Br)c1` was what?
Resp: F

Req: Name the outcome recorded for COc1ccc(C(NC(=O)c2cccnc2)c2cc(Cl)c3cccnc3c2O)cc1OC (stereo not given) in the assay.
Resp: F

Req: Which outcome was assigned to `O=C(NCc1ccccc1)c1ccc(C(=O)N(C2CCCCC2)C2CCCCC2)cc1` in this test?
Resp: F

Req: Record lookup: outcome of this test for `O=C(N/N=C/c1ccc([N+](=O)[O-])s1)c1ccccc1` ?
Resp: F

Req: Hey, what did the test say about `CN1CCN(c2cc(-c3cc(O)c4ncccc4c3)ccn2)CC1` ?
Resp: F

Req: Dear all, I need the recorded test outcome for `O=C(CNC(=O)c1ccc(F)cc1)N/N=C/c1cc(Br)ccc1OC(=O)/C=C/c1ccco1` , thank you.
Resp: F

Req: What is the recorded call for this compound in the test? `Clc1ccc2nc(-c3ccccn3)c(Nc3ccc4c(c3)OCO4)n2c1`
Resp: F

Req: Given `Cc1cc(C(=O)N/N=C/c2ccc([N+](=O)[O-])s2)n[nH]1` , state the outcome it received in this test.
Resp: F

Req: Test call, this compound: `O=C(/C=C/c1ccco1)Oc1cc(Br)cc(/C=N/NC(=O)c2ccccc2O)c1`
Resp: T

====

- assay-summary: Firefly Luciferase Counterscreen for Inhibitors of ATXN expression
- condition-description: luminescence; series mostly up to 57.5 µM
In all, about 1,400 compounds went through this assay and about 30 (2%) were called active. Inconclusive results (about 15%) are left out. Calls come from the whole dose curve; as a rule, active = well fitted inhibition curve with a large enough effect; inconclusive = small, poorly fitted or top-dose-only effect; inactive = flat fitted curve, though single readings scatter. The entries come from a sample that favours actives as a whole.
Please state which outcome applies, choosing from True = active, False = inactive

Worked cases, answers included:
CC1(C(=O)NCc2ccccc2Br)CCN1C(=O)Cc1ccc(-c2ccccc2)cc1 (stereo not drawn) :: False
Cc1nc2ccccc2c(=O)n1/N=C/c1cc(Br)ccc1O :: False
CCn1c(C)cc(C(=O)COC(=O)c2ccccc2[N+](=O)[O-])c1C :: True
O=C(Nc1nc(-c2ccccn2)cs1)c1ccccc1-n1cnnn1 :: False

Req: Recorded test call requested for CC(OC(=O)c1cc(Br)ccc1O)C(=O)Nc1ccc(S(=O)(=O)N2CCCC2)cc1 (stereo not drawn)
Resp: False

Req: What did this assay record as the result for `COc1ccccc1-c1cc2nc(-c3ccccc3)cc(N3CCN(C(=O)c4ccco4)CC3)n2n1` ?
Resp: False

Req: Please share the test call associated with `Cc1c(C(=O)N2c3ccccc3Sc3ccccc32)cccc1[N+](=O)[O-]` .
Resp: False

Req: For `CC(=O)NC(=C(Cl)Cl)S(=O)(=O)c1ccccc1` , what call appears in the results of this test?
Resp: False

====

- assay-summary: Firefly Luciferase Counterscreen for Inhibitors of ATXN expression; also: potency is read from the fitted curve at half-maximal effect
- condition-description: luminescence; series mostly up to 57.5 µM
In all, about 1,400 compounds went through this assay and about 30 (2%) were called active. Roughly 15% stayed inconclusive and do not appear here. This is one part of a sample in which actives are shown more often than they occur.
measured-endpoint: Potency

The examples below pair each entry with its known result.
CCCCOc1ccc(CSC(=N)N)cc1Cl :: inactive
Cc1cc2sc3ccc(C#CC4(O)CCCCC4)cc3c(=O)c2cc1C :: 0.251 µM (active)
O=C(Nc1nc(-c2ccccn2)cs1)Nc1ccc(F)cc1F :: 25.1 µM (active)
Cc1cc(C(=O)N/N=C/c2c(CO)cnc(C)c2O)c2ccccc2n1 :: inactive
CC1(C)Cc2ccccc2C2=NNC(=O)C2=N1 :: inactive

compound `COC(=O)c1cc(NC(=O)c2cc(-c3ccc(C(F)(F)F)cc3)oc2C(F)(F)F)ccc1N1CCOCC1` , Potency observed: inactive

Record summary for `COc1cc(/C=C(/C#N)C(=O)NCCc2c[nH]c3ccccc23)ccc1OCc1ccccc1F` : reported Potency = inactive

Record `CC(=O)Oc1ccc(N(C(C)=O)S(=O)(=O)c2ccc(Cl)cc2)c2ccccc12` , field Potency: inactive

What the record says about CC(=O)Nc1cccc(-c2ccnc3c2CC(C)(C(=O)Nc2ccc(Cl)cc2)O3)c1 (stereo not given) : Potency is inactive

Query `Cc1nc2ccccc2c(=O)n1/N=C/c1c(O)ccc2oc3c(c12)CCCC3` yields Potency of inactive

The compound listed as `CN(C(=O)c1cnc(N2CCN(c3ncccn3)CC2)c2ccccc12)c1ccc(Cl)cc1` has a reported Potency of inactive

Field Potency (entry `COc1ccccc1NC(=O)CSc1n[nH]c(-c2ccccn2)n1` ) reads inactive

Per the record, CC1=NN(c2nc3ccccc3[nH]2)C(=O)C1Cc1ccccc1 (stereo not given) has Potency of 25.1 µM (active)

Form: compound = `CCOC(=O)N1CCC(c2cc(=O)n3[nH]c(C)c(-c4ccc(F)cc4)c3n2)CC1` ; Potency = inactive

The compound listed as `Cc1cc(/C=N/n2c(COc3ccccc3)nc3ccccc3c2=O)c(O)c([N+](=O)[O-])c1` has a reported Potency of 15.8 µM (active)

Lab book: Potency of NC(c1csc(NC(=O)c2cccc(OC(F)(F)F)c2)n1)c1ccccc1Cl (stereo not given) noted as inactive

Briefly, Potency measured for CC(=O)NC(c1ccccc1)c1cc(Cl)c2cccnc2c1O (stereo not given) : inactive

Potency reported for this compound `COc1ccc(CSCC(=O)N/N=C/c2ccccc2O)cc1` : inactive

The measured Potency associated with `COc1ccc(-c2cc(C3CCN(c4ccc(C(C)=O)cc4[N+](=O)[O-])CC3)[nH]n2)cc1` reads inactive

Potency in this record for `O=C(N/N=C/c1cc([N+](=O)[O-])ccc1O)c1c[nH]c2ccccc12` : inactive
